Answer each item with its documented Specific activity, Naringenin chalcone.
test: Specific activity of purified CHI, absorbance decrease at 384 nm, naringenin chalcone; format: biochemical; details: purified CHI in 50 mM PBS, 100 μM substrate, 25° C. Note: unit not given here.
One number for each entry.

Below are worked cases with known answers.
molecule	Specific activity, Naringenin chalcone
CHIera Mut13: Chalcone isomerase variant 13 from Eubacterium ramulus, genetically engineered (protein, listed as Eubacterium ramulus) MADFKFEPMRSLIYVDCVSEDYRPKLQRWIYKVHIPDSISKFEPYVTKYAFYPSFPIPPQGDRFGYARMQLTEHHWLVSPLDPRLEINAIAETFPMDVLVWQGQIPAAAHTDAQIDSDGDADDAARKSNNAEGNPFIFAFLPMWWEKDLKGKGRTIEDGANYRFNMTIGFPEGVDKAEGEKWLFEKVVPILQAAPECTRVLASAVKKDINGCVMDWVLEIWFENQSGWYKVMVDDMKALEKPSWAQQDAFPFLKPYHNVCSAAVADYTPSNNLANYRGYITMR	28.0
CHIera Mut4: Chalcone isomerase variant 4 from Eubacterium ramulus, genetically engineered (protein, listed as Eubacterium ramulus) MADFKFEPMRSLIYVDCVSEDYRPKLQRWIYKVHIPDSISQFEPYVTKYAFYPSFPIPPQGDRFGYARMQLTEHHWLVSELDPRLEIKAIAETFPMDVLVWQGQIPAAAHTDAQIDSDGDAGRAAKKSNNAEGNPFIFAFLPMWWEKDLKGKGRTIEDGANYRFNMTIGFPEGVDKAEGEKWLFEKVVPILQAAPECTRVLASAVKKDINGCVMDWVLEIWFENQSGWYKVMVDDMKALEKPSWAQQDAFPFLKPYHNVCSAAVADYTPSNNLANYRGYITMR	2.3
CHIera Mut9: Chalcone isomerase variant 9 from Eubacterium ramulus, genetically engineered (protein, listed as Eubacterium ramulus) MADFKFEPMRSLIYVDCVSEDYRPKLQRWIYKVHIPDSISQFEPYVTKYAFYPSFPIPPQGDRFGYARMQLTEHHWLVSMLDPRLEIKAIAETFPMDVLVWQGQIPAAAHTDAQIDSDGDAGNAARKSNNAEGNPFIFAFLPMWWEKDLKGKGRTIEDGANYRFNMTIGFPEGVDKAEGEKWLFEKVVPILQAAPECTRVLASAVKKDINGCVMDWVLEIWFENQSGWYKVMVDDMKALEKPSWAQQDAFPFLKPYHNVCSAAVADYTPSNNLANYRGYITMR	67.5

Proceeding to the next molecule to report its Specific activity, Naringenin chalcone.
So what's the measured Specific activity, Naringenin chalcone for this one? CHI7: Chalcone isomerase from Clostridium sp. SY8519, access no. WP_013978403.1 (protein, Clostridium sp. SY8519) ADFKFEPMRSFIYVNCAKEDYRPKLQRWLYKTHVPDSIGQFEPYVTKYAFYPSFPTPPEGERFGYCSMQLTEHHWMVSDFDERLGIKAIAETFPPEVLLWQGNITEGMLEAMKKNGGAPGDDGGDSGNEARSTNMEGANPFIFCFAPYWWEDDIKGKGRTIEDGANYRWNVAIGYPEGVSAEEGDRWLFEEVIPVFEAAPECTRILHSKVKKEINGGSGMEHILEFWFENQSGWYQTAVEATKTLKKPAWAQQDQFPFLKPYHKFISVAVADFTMANNLVNYHGYIPRR 68.3
